Molecular target: muscarinic receptors (M1-site, pirenzepine sensitive site) (Rattus norvegicus, UniProt P08482)
Construct: Fresh cortex (0.1-1 g) from male Wistar rats (150-200 g) is homogenized
Test: Inhibition of 3H-PRZ (pirenzepine, [N-methyl-3H]) binding to rat cerebral cortex membranes
Details: 1.0 nM 3H-Pirenzepine, 60 min at 20° C.
Method: Furthermore the pharmacological properties of the compounds of the invention can also be illustrated by determining their capability to inhibit ^3H-PRZ (pirenzepine, [N-methyl-^3H]) binding to rat cerebral cortex membranes. […] The final pellet is homogenized in 20 mM Hepes pH: 7.4 (100 ml per g of original tissue) and used for binding assay. […] Non-specific binding is determined in triplicate using atropine (1 μg/ml, final conc.) as the test substance. […]
The following compounds are shown together with reported pIC50 values.
Note on pIC50: it is the negative log10 of concentration, concentration in mol/L.

COc1cccc(C#CCOc2nsnc2OC2CN3CCC2C3)c1 (stereo not drawn): 7.77
C(#Cc1ccccc1)COc1nsnc1OC1CN2CCC1C2 (stereo not drawn): 7.85
C(#Cc1ccccn1)COc1nsnc1OC1CN2CCC1C2 (stereo not drawn): 8.35

Q: Provide measured pIC50 value, entry: C(#Cc1ccoc1)COc1nsnc1OC1CN2CCC1C2 (stereo not drawn)
Result: 8.41

Q: Provide measured pIC50 value, entry: FC(F)(F)Oc1ccc(COc2nsnc2OC2CN3CCC2C3)cc1 (stereo not drawn)
Result: 7.49

Q: Provide measured pIC50 value, entry: Fc1ccc(COc2nsnc2OC2CN3CCC2C3)cc1 (stereo not drawn)
Result: 7.52

Q: Provide measured pIC50 value, entry: Fc1cc(C(F)(F)F)ccc1COc1nsnc1OC1CN2CCC1C2 (stereo not drawn)
Result: 6.89

Q: Provide measured pIC50 value, entry: C(CC1CC1)Oc1nsnc1OC1CN2CCC1C2 (stereo not drawn)
Result: 8.01

###

The following compounds are shown together with reported pIC50 values.
target: muscarinic receptors (M1-site, pirenzepine sensitive site) (Rattus norvegicus); construct: Fresh cortex (0.1-1 g) from male Wistar rats (150-200 g) is homogenized; assay: Inhibition of 3H-PRZ (pirenzepine, [N-methyl-3H]) binding to rat cerebral cortex membranes; settings: 1.0 nM 3H-Pirenzepine, 60 min at 20° C.
Note on pIC50: it is the negative log10 of concentration, concentration in mol/L.

In the examples that follow, each entry is paired with its recorded pIC50.
FCCSc1nsnc1OC1CN2CCC1C2 (stereo not shown): 7.51
FC(F)(F)CCCOc1nsnc1OC1CN2CCC1C2 (stereo not shown): 7.85
FC(F)(F)C(F)(F)C(F)(F)COc1nsnc1OC1CN2CCC1C2 (stereo not shown): 8.28
CCCCSc1nsnc1OC1CN2CCC1C2 (stereo not shown): 9.85
FC(F)(F)COc1nsnc1OC1CN2CCC1C2 (stereo not shown): 7.37

Q: Provide measured pIC50 value, entry: Clc1ccc(C#CCOc2nsnc2OC2CN3CCC2C3)cc1 (stereo not shown)
Result: 7.92

Q: Provide measured pIC50 value, entry: C(#Cc1cccnc1)COc1nsnc1OC1CN2CCC1C2 (stereo not shown)
Result: 7.89

Q: Provide measured pIC50 value, entry: Fc1ccc(CSc2nsnc2OC2CN3CCC2C3)c(F)c1 (stereo not shown)
Result: 7.80

Q: Provide measured pIC50 value, entry: FC(F)(F)CCCSc1nsnc1OC1CN2CCC1C2 (stereo not shown)
Result: 8.47

Q: Provide measured pIC50 value, entry: CC(C#Cc1ccc(F)cc1)=CCOc1nsnc1OC1CN2CCC1C2 (stereo not shown) [Compound 21]
Result: 7.00

###

Biological target: muscarinic receptors (M1-site, pirenzepine sensitive site) (Rattus norvegicus, UniProt P08482)
Construct: Fresh cortex (0.1-1 g) from male Wistar rats (150-200 g) is homogenized
Sequence (P08482 1-460): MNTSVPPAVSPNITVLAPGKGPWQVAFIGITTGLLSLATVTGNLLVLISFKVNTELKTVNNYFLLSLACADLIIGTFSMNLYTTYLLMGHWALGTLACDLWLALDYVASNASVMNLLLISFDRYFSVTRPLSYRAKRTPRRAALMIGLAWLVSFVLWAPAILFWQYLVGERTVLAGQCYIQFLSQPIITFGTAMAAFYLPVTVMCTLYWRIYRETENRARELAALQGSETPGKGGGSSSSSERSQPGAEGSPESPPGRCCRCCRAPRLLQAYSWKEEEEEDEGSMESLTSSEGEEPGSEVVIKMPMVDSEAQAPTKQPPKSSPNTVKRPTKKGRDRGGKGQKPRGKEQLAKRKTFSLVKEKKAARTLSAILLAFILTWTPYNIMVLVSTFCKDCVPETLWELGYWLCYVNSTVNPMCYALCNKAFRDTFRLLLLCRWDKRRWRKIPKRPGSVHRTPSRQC
Experiment: Inhibition of 3H-PRZ (pirenzepine, [N-methyl-3H]) binding to rat cerebral cortex membranes
Conditions: 1.0 nM 3H-Pirenzepine, 60 min at 20° C.
measured property: pIC50
Note on pIC50: it is the negative log10 of concentration, concentration in mol/L.

Q: Provide measured pIC50 value, entry: `C(#Cc1cccs1)COc1nsnc1O[C@H]1CN2CC[C@@H]1C2`
Result: 8.06

Q: Provide measured pIC50 value, entry: C(#Cc1ccsc1)COc1nsnc1OC1CN2CCC1C2 (stereo not drawn)
Result: 8.33

###

target: muscarinic receptors (M1-site, pirenzepine sensitive site) (Rattus norvegicus); construct: Fresh cortex (0.1-1 g) from male Wistar rats (150-200 g) is homogenized; test: Inhibition of 3H-PRZ (pirenzepine, [N-methyl-3H]) binding to rat cerebral cortex membranes; conditions: 1.0 nM 3H-Pirenzepine, 60 min at 20° C.
Mark criterion met only when IC50 stays strictly below 20 nM. Values equal to the cut-off are criterion not met.

Illustrative cases are given below, each with its answer.
CC(C)=CCOc1nsnc1OC1CN2CCC1C2 (stereo not shown): criterion not met
CC#CCOc1nsnc1OC1CN2CCC1C2 (stereo not shown): criterion not met
N#Cc1ccc(CSc2nsnc2OC2CN3CCC2C3)cc1 (stereo not shown): criterion not met
CC(C#Cc1ccc(F)cc1)=CCOc1nsnc1OC1CN2CCC1C2 (stereo not shown) [Compound 22]: criterion not met
N#CCCSc1nsnc1OC1CN2CCC1C2 (stereo not shown): criterion not met

Shift focus to the following entry.
Q: Please let me know if C1CC(COc2nsnc2OC2CN3CCC2C3)C1 (stereo not shown) shows IC50 below 20 nM.
Result: criterion met

The reported measurements were obtained from patent US6720342B2.
